Origin of values: patent US10807960B2

# System: C. albicans SC5314 + S. epidermidis
# experiment.notes: mixed C. albicans/S. epidermidis biofilm assay, selective plating
# Assay type: cell-based, Candida albicans; Staphylococcus epidermidis
# run.conditions: C. albicans in mixed biofilm with S. epidermidis, 25 μM (Table 5); read-out: CFUs % survival C.a.
property.measured: activity at 25 µM (%)

> print(dat)
                                item.smiles  numeric.result
1    CCCCCCCCn1c(-c2ccc(Br)cc2)cnc1NC1CCCC1             3.3
2    CCCCCCCCn1c(-c2ccc(Cl)cc2)cnc1NC1CCCC1             2.9
3  CCCCCCCCn1c(-c2ccc(Cl)c(Cl)c2)cnc1NCC(C)C             2.5
4  CCCCCCCCn1c(-c2ccc(Cl)c(Cl)c2)cnc1NC1CCCC1             6.7
5     CCCCCCCCn1c(-c2ccc(Br)cc2)cnc1NCC(C)C             3.2
6     CCCCCCCCn1c(-c2ccc(Cl)cc2)cnc1NCC(C)C               2
7        CCCCCCCCn1c(-c2ccccc2)cnc1NC1CCCC1              10

====

Reported pIC50 values for a set of molecules
# Tested on: S. liquefaciens MG44
# experiment.notes: static peg (Calgary Biofilm Device) anti-biofilm assay, crystal violet and OD600
# Assay type: cell-based, Serratia liquefaciens
# run.conditions: biofilm formation, 25° C.; read-out: BIC50
pIC50: −log10 of the molar value.
property.measured: pIC50

> print(dat)
                                   molecule  numeric.result
1  Clc1ccc(-c2cnc(NC3CCCC3)[nH]2)cc1 [Compound 5]            5.06
2  Brc1ccc(-c2cnc(NCCn3cc(C4CC4)nn3)[nH]2)cc1 [Compound 6]            4.20
3  CCCCNc1ncc(-c2ccc(Br)cc2)[nH]1 [Compound 4]            5.36
4  CC(C)CNc1ncc(-c2ccc(Cl)cc2)[nH]1 [Compound 3]            4.98

====

# Tested on: S. liquefaciens MG44
# experiment.notes: static peg (Calgary Biofilm Device) anti-biofilm assay, crystal violet and OD600
# Assay type: cell-based, Serratia liquefaciens
# run.conditions: biofilm formation; read-out: BIC50
pIC50: −log10 of the molar value.
property.measured: pIC50

> print(dat)
                       item.smiles  numeric.result
1  CCCCCCCCn1c(-c2ccc(Cl)cc2)cnc1N            4.73

====

# System: osteoblasts (OB)
# experiment.notes: mammalian-cell viability assay, trypan blue staining
# Assay type: cell-based
# run.conditions: 12.5 μM, 6 days exposure
property.measured: proliferation (in words)

> print(dat)
                                   compound            result
1  CCCCCCCCn1c(-c2ccccc2)cnc1NC1CCCC1 [Compound 8e]  slightly reduced
2  CCCCCCCCn1c(-c2ccccc2)cnc1NCC(C)C [Compound 8a]  slightly reduced

====

# System: S. liquefaciens MG44
# experiment.notes: static peg (Calgary Biofilm Device) anti-biofilm assay, crystal violet and OD600
# Type: cell-based, Serratia liquefaciens
# run.conditions: planktonic growth; read-out: IC50
pIC50: −log10 of the molar value.
property.measured: pIC50

> print(dat)
                       item.smiles  numeric.result
1  CCCCCCCCn1c(-c2ccc(Cl)cc2)cnc1N            4.42
